B1: Dystrobrevin alpha, residues 235 to 294; numbered along this chain, Q9Y4J8 (parent)
chain: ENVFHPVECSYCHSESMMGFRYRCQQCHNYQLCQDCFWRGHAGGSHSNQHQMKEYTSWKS

Variants of: B1
experimental.details: abundance fitness (aPCA) (normalised: wild type 0, dead -1); higher = more abundant; growth selection in yeast, the domain comes from the species named
reported.conditions: Homo sapiens
property.name: abundance fitness
Give bare numbers.

[[record]]
mutant_label = "C24Y"
number = -0.935


Hi there! I need abundance fitness for each item below, if you can.
1. N2V
2. W38C
3. D35V
4. H5L

-0.129
0.215
-0.084
-0.125

Hi team, please reply with abundance fitness for each item in this list.
1. S10G
2. S60P
3. Q25F
4. V3C
5. G19V
6. S47E
7. G43T

-0.443
-0.065
-0.325
0.118
-0.13
-0.028
-0.139
